PROTOCOL SUMMARY: Partition coefficient, logD of the compound at pH 7.4 by HPLC method
Type: physicochemical
ASSAY SETUP: octanol/water
Measured logD, listed per entry for reference.
Enter a number only.

Here are 3 compounds together with their reported answers.
CCC(CC)NC(=O)c1nc(-c2ccc(F)c(C)c2)cnc1N; 4.8
CC(C)(C)NC(=O)c1nc(-c2ccccc2)cnc1N; 4.3
CCC(CC)NC(=O)c1nc(-c2cccc(C)c2)cnc1N; 4.7

Just so you know, measured logD for CCC(C)NC(=O)c1nc(-c2ccccc2C#N)cnc1N (stereo not drawn) came out at 3.6

Just so you know, measured logD for `Nc1ncc(-c2ccccc2)nc1C(=O)NC1CCCC1` came out at 4.1

Just so you know, measured logD for `CCC(CC)NC(=O)c1nc(-c2ccc(F)cc2C#N)cnc1N` came out at 4.2

Just so you know, measured logD for `N#Cc1ccccc1-c1cnc(N)c(C(=O)NC2CCCC2)n1` came out at 3.9

Just so you know, measured logD for `CCC(CC)NC(=O)c1nc(-c2ccc(F)cc2)cnc1N` came out at 4.4

* * *

Tested on: Trypanosoma cruzi
PROTOCOL SUMMARY: Anti-parasitic activity against Trypanosoma cruzi Tulahuen C2C4 trypomastigotes infected rat L6 cells incubated for 96 hrs by CPRG/nonidet substrate based […]
Format: functional, organism-based
ASSAY SETUP: Tulahuen C2C4, L6, 96 h
EC50 vs 20 µM: less than gives true (1); not less than gives false (0).

Solved cases (4 shown):
CCC(C)NC(=O)c1nc(-c2ccc(F)cc2)cnc1N (stereo unspecified); true (1)
CCC(C)NC(=O)c1nc(-c2cccc(Cl)c2)cnc1N (stereo unspecified); false (0)
Nc1ncc(-c2ccccc2)nc1C(=O)NC1CCCC1; true (1)
N#Cc1ccccc1-c1cnc(N)c(C(=O)NC2CCCC2)n1; true (1)

Then this molecule:
Asked: Hi there! Is EC50 for CCC(C)NC(=O)c1nc(-c2cccc(C)c2)cnc1N (stereo unspecified) below 20 µM, do you know?
Given back: false (0)

* * *

Measured log10 EC50, listed per entry for reference.
Tested on: Trypanosoma brucei rhodesiense
PROTOCOL SUMMARY: Anti-parasitic activity against Trypanosoma brucei rhodesiense STIB 900 trypomastigotes incubated for 70 hrs by alamar blue dye based assay
Type: functional, organism-based
ASSAY SETUP: STIB 900, 70 h
Scale: log10; quantity: EC50; unit before log: µM

CCC(C)NC(=O)c1nc(-c2cccc(C)c2)cnc1N (stereo not drawn); -0.89
CCC(C)NC(=O)c1nc(-c2ccc(F)cc2)cnc1N (stereo not drawn); -0.66
CCC(CC)NC(=O)c1nc(-c2ccc(F)c(C)c2)cnc1N; -1.42
N#Cc1ccccc1-c1cnc(N)c(C(=O)NC2CCCC2)n1; -0.24
CCC(CC)NC(=O)c1nc(-c2ccc(F)cc2C#N)cnc1N; -1.05
CCC(C)NC(=O)c1nc(-c2cccc(Cl)c2)cnc1N (stereo not drawn); 0.31
CCC(CC)NC(=O)c1nc(-c2ccc(F)cc2)cnc1N; -1.28
CCC(C)NC(=O)c1nc(-c2ccccc2C#N)cnc1N (stereo not drawn); -0.19

Item `CCC(CC)NC(=O)c1nc(-c2cccc(C)c2)cnc1N` ; assay system Trypanosoma brucei rhodesiense; log10 EC50 reported as -0.85

Item CCC(C)NC(=O)c1nc(-c2ccccc2)cnc1N (stereo not drawn) ; assay system Trypanosoma brucei rhodesiense; log10 EC50 reported as -0.01

Item `Cc1cccc(-c2cnc(N)c(C(=O)NC3CCCC3)n2)c1` ; assay system Trypanosoma brucei rhodesiense; log10 EC50 reported as -1.62

Item `CCC(CC)NC(=O)c1nc(-c2ccccc2C#N)cnc1N` ; assay system Trypanosoma brucei rhodesiense; log10 EC50 reported as -0.89

Item `Nc1ncc(-c2ccccc2)nc1C(=O)NC1CCCC1` ; assay system Trypanosoma brucei rhodesiense; log10 EC50 reported as -0.85
